# test system: T1, human a-Mesothelin (Acro Biosystems; MSN_H5223) (human, UniProt Q13421 296-580, limits assumed)
# T1 construct: Bought protein immobilised on the SPR chip; Printed as 'a-Mesothelin' but used as the antigen for the anti-MSLN scFvs; also called Human MSLN; MSLN
# T1 sequence (Q13421 other isoform, or with tags, fused parts or gaps limits assumed): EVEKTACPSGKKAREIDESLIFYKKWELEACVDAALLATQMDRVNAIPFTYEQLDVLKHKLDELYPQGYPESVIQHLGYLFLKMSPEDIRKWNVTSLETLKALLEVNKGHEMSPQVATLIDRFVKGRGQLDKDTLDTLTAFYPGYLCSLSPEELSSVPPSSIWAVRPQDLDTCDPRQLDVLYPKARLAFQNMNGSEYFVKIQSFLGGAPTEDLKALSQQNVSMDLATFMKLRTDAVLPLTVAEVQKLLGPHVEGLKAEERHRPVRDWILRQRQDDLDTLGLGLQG
# assay overview: SPR, mesothelin immobilised, scFv analyte, 1:1 fit
pKd: −log10 of the molar value.

binder | pKd
PRO2990 (scFv 54-21-H03-sc01_(L12S, V103T, L144T)) (scFv, VH substitutions, AHo numbering; also called PRO1922-L12S-V103T-L144T) scFv: DIQMTQSPSSLSASVGDRVTITCQASESIYSSLAWYQQKPGKAPKLLIYLASTLASGVPSRFSGSGSGTDFTLTISSLQPEDFATYYCQSTDYTTSTHRNSFGTGTKVTVLGGGGGSGGGGSGGGGSGGGGSEVQLVESGGGSVQPGGSLRLSCAASGFSFSTTYYMCWVRQAPGKGLEWIGCTNTASSVRTYYATWAKGRFTISRDNSKNTVYLQMNSLRAEDTATYYCARDMGFADYALNLWGQGTTVTVSS | 8.82
PRO3349 (scFv 54-21-H03-sc01_(T101R, T146E)) (scFv, PRO1922 variant; VH substitutions, AHo numbering; also called PRO1922 T101R-T146E) scFv: DIQMTQSPSSLSASVGDRVTITCQASESIYSSLAWYQQKPGKAPKLLIYLASTLASGVPSRFSGSGSGTDFTLTISSLQPEDFATYYCQSTDYTTSTHRNSFGTGTKVTVLGGGGGSGGGGSGGGGSGGGGSEVQLVESGGGLVQPGGSLRLSCAASGFSFSTTYYMCWVRQAPGKGLEWIGCTNTASSVRTYYATWAKGRFTISRDNSKNTVYLQMNSLRAEDRAVYYCARDMGFADYALNLWGQGTLVEVSS | 8.72
PRO2946 (scFv 54-21-H03-sc01_(T101S)) (scFv, PRO1922 variant; VH substitution, AHo numbering; also called PRO1922 T101S) scFv: DIQMTQSPSSLSASVGDRVTITCQASESIYSSLAWYQQKPGKAPKLLIYLASTLASGVPSRFSGSGSGTDFTLTISSLQPEDFATYYCQSTDYTTSTHRNSFGTGTKVTVLGGGGGSGGGGSGGGGSGGGGSEVQLVESGGGLVQPGGSLRLSCAASGFSFSTTYYMCWVRQAPGKGLEWIGCTNTASSVRTYYATWAKGRFTISRDNSKNTVYLQMNSLRAEDSAVYYCARDMGFADYALNLWGQGTLVTVSS | 8.49
PRO3346 (scFv 54-21-H03-sc01_(T101S T146K)) (scFv, PRO1922 variant; VH substitutions, AHo numbering; also called PRO1922 T101S-T146K) scFv: DIQMTQSPSSLSASVGDRVTITCQASESIYSSLAWYQQKPGKAPKLLIYLASTLASGVPSRFSGSGSGTDFTLTISSLQPEDFATYYCQSTDYTTSTHRNSFGTGTKVTVLGGGGGSGGGGSGGGGSGGGGSEVQLVESGGGLVQPGGSLRLSCAASGFSFSTTYYMCWVRQAPGKGLEWIGCTNTASSVRTYYATWAKGRFTISRDNSKNTVYLQMNSLRAEDSAVYYCARDMGFADYALNLWGQGTLVKVSS | 8.82
PRO3318 (scFv 54-21-H03-sc01_(L12A, T101R, L144A, T146Q)) (scFv, PRO1922 variant; VH substitutions, AHo numbering; also called PRO1922 L12A-T101R-L144A-T146Q) scFv: DIQMTQSPSSLSASVGDRVTITCQASESIYSSLAWYQQKPGKAPKLLIYLASTLASGVPSRFSGSGSGTDFTLTISSLQPEDFATYYCQSTDYTTSTHRNSFGTGTKVTVLGGGGGSGGGGSGGGGSGGGGSEVQLVESGGGAVQPGGSLRLSCAASGFSFSTTYYMCWVRQAPGKGLEWIGCTNTASSVRTYYATWAKGRFTISRDNSKNTVYLQMNSLRAEDRAVYYCARDMGFADYALNLWGQGTAVQVSS | 8.64
PRO3322 (scFv 54-21-H03-sc01_(L12R, T101R, L144A, T146Q)) (scFv, PRO1922 variant; VH substitutions, AHo numbering; also called PRO1922 L12R-T101R-L144A-T146Q) scFv: DIQMTQSPSSLSASVGDRVTITCQASESIYSSLAWYQQKPGKAPKLLIYLASTLASGVPSRFSGSGSGTDFTLTISSLQPEDFATYYCQSTDYTTSTHRNSFGTGTKVTVLGGGGGSGGGGSGGGGSGGGGSEVQLVESGGGRVQPGGSLRLSCAASGFSFSTTYYMCWVRQAPGKGLEWIGCTNTASSVRTYYATWAKGRFTISRDNSKNTVYLQMNSLRAEDRAVYYCARDMGFADYALNLWGQGTAVQVSS | 8.68
